target: 2-Hydroxyacid oxidase 2 (Homo sapiens) (UniProt Q9NYQ3); experiment: Inhibition of human Hao2-mediated oxidation of 2-hydroxyoctanoic acid assessed as proportionate release of H2O2 at 1 uM
Classification field: class 1 = inhibition at or over 8%; class 0 = inhibition under 8%.

Has `Cc1n[nH]c(C(=O)O)c1-c1ccc(F)cc1` a recorded inhibition greater than or equal to 8%? class 0

Ok, now `Cc1n[nH]c(C(=O)O)c1Cc1cccc(-c2ccc(F)cc2)c1` class 1

Query `Cc1n[nH]c(C(=O)O)c1Cc1cccc(C(F)(F)F)c1` next class 0

`Cc1n[nH]c(C(=O)O)c1Cc1cccc(-c2ccncc2)c1` ? class 1

Okay, and `Cc1n[nH]c(C(=O)O)c1Cc1cccc(-c2ccc(CC(=O)O)cc2)c1` ? class 0

---

target: 2-Hydroxyacid oxidase 2 (Homo sapiens); assay: Inhibition of human Hao2-mediated oxidation of 2-hydroxyoctanoic acid assessed as proportionate release of H2O2 at 10 uM
Mark False for inhibition values under 30%, and True for everything at or above.

Decide: inhibition of `Cc1n[nH]c(C(=O)O)c1Cc1ccc(F)cc1` >= 30%? False

Let us now turn to `O=C(O)c1[nH]nc(Cc2ccccc2)c1Cc1cccc(-c2ccc(F)cc2)c1` False

What do we get for `Cc1n[nH]c(C(=O)O)c1-c1ccc(-c2ccc(F)cc2)cc1` ? True

Moving on to the next molecule: `Cc1n[nH]c(C(=O)O)c1Cc1cccc(-c2ccc(CC(=O)O)cc2)c1` False

Could you do the same for `Cc1n[nH]c(C(=O)O)c1Cc1cccc(-c2cccnc2)c1` , please? True

Repeat for the following molecule: `Cc1n[nH]c(C(=O)O)c1Cc1cc2ccccc2o1` True

Another molecule to check: `Cc1n[nH]c(C(=O)NS(C)(=O)=O)c1Cc1cccc(-c2ccc(F)cc2)c1` False

Can you handle `Cc1n[nH]c(C(=O)O)c1Cc1cccc(-c2ccncc2)c1` next? True

Next molecule up: `Cc1n[nH]c(C(=O)O)c1CCc1ccc(F)cc1` False

Likewise for `Cc1n[nH]c(C(=O)O)c1Cc1cccc(-c2ccc(F)cc2)c1` ? True

Request: `Cc1n[nH]c(C(=O)O)c1Cc1cccc(-c2ccc(OC(F)(F)F)cc2)c1` True

---

biological target: 2-Hydroxyacid oxidase 2 (Homo sapiens) (UniProt Q9NYQ3); assay: Inhibition of human Hao2-mediated oxidation of 2-hydroxyoctanoic acid assessed as proportionate release of H2O2 at 10 uM
Would you kindly list inhibition for each of these molecules?
Supply the numeric figure in %, leaving out any unit text.

Bench note: what inhibition did `Cc1n[nH]c(C(N)=O)c1Cc1cccc(-c2ccc(F)cc2)c1` show? 14

Can you check `Cc1n[nH]c(C(=O)O)c1Cc1ccc(C(N)=O)cc1` next? 8

Okay, and `Cc1n[nH]c(C(=O)O)c1Cc1ccccc1C(F)(F)F` ? 38

And the next one, `CNC(=O)c1[nH]nc(C)c1Cc1cccc(-c2ccc(F)cc2)c1` ? 19

Next up: `Cc1n[nH]c(C(=O)O)c1Cc1ccccc1Oc1ccccc1` 49

Record: `Cc1c(Cc2cccc(-c3ccc(F)cc3)c2)c(C(=O)O)nn1C` 4

---

Provide the recorded inhibition for the entries that follow.
Target: 2-Hydroxyacid oxidase 2 (Homo sapiens)
Sequence (whole entry): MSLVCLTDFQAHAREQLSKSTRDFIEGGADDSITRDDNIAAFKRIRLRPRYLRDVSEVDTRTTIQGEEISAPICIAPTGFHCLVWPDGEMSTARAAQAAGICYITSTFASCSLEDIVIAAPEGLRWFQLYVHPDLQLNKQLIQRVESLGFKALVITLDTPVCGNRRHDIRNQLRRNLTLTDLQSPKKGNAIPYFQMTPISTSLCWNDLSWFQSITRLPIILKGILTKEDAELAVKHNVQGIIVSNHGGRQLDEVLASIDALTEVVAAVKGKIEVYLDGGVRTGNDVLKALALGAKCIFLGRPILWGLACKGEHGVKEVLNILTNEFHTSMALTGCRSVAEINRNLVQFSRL
Test: Inhibition of human Hao2-mediated oxidation of 2-hydroxyoctanoic acid assessed as proportionate release of H2O2 at 1 uM
The reply should contain only the number, in %.

Need inhibition, item `Cc1n[nH]c(C(=O)O)c1Cc1cccc(-c2ccccc2F)c1` 5

One more compound: `Cc1nn(C)c(C(=O)O)c1Cc1cccc(-c2ccc(F)cc2)c1` 5

What about this compound? `Cc1n[nH]c(C(=O)O)c1Cc1ccc(-c2ccc(C(F)(F)F)cc2)cc1` 5

---

target: 2-Hydroxyacid oxidase 2 (Homo sapiens); test: Inhibition of human Hao2-mediated oxidation of 2-hydroxyoctanoic acid assessed as proportionate release of H2O2 at 1 uM
Would you kindly list inhibition for each of these molecules?

Consider the molecule `CNC(=O)c1[nH]nc(C)c1Cc1cccc(-c2ccc(F)cc2)c1` and give its measured inhibition. 7%

# repeat for `Cc1n[nH]c(C(=O)O)c1Cc1ccc(F)cc1` 7%

Now consider `CC(C)c1n[nH]c(C(=O)O)c1Cc1cccc(-c2ccc(F)cc2)c1` . 2%

# repeat for `Cc1n[nH]c(C(=O)O)c1Cc1cccc(C#N)c1` 6%

Entry to check: `Cc1n[nH]c(C(=O)O)c1Cc1ccc(OC(F)(F)F)cc1` 7%

Item: `Cc1n[nH]c(C(=O)O)c1Cc1ccc(C(=O)O)cc1` 3%

Also `Cc1n[nH]c(C(=O)O)c1CCc1ccc(-c2ccc(F)cc2)cc1` ? 5%

Note, next up: `Cc1n[nH]c(C(=O)O)c1Cc1ccc(Oc2ccccc2)cc1` 10%

Same thing, different molecule: `Cc1n[nH]c(C(=O)O)c1Cc1ccc(-c2ccc(OC(F)(F)F)cc2)cc1` 11%

Can you handle `Cc1n[nH]c(C(=O)O)c1Cc1cccc(F)c1` next? 1%

---

Molecular target: 2-Hydroxyacid oxidase 2 (Rattus norvegicus)
Sequence (whole entry): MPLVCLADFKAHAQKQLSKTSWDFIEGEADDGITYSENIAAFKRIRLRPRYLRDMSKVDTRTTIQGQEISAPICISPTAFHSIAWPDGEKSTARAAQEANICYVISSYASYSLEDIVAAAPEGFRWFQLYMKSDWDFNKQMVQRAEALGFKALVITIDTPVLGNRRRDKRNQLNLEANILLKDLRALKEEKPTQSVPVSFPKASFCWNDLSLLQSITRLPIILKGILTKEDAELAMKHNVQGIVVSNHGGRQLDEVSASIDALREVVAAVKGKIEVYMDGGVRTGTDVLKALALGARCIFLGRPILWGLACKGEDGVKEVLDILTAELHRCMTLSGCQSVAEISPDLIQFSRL
Assay: Inhibition of rat Hao2-mediated oxidation of 2-hydroxyoctanoic acid assessed as proportionate release of H2O2 at 10 uM
So I've got a bunch of compounds here, and I need their inhibition values.
Hi! Could you send only the number? It should be in %, unit omitted.

Consider the compound `Cc1n[nH]c(C(=O)O)c1Cc1cc2ccccc2o1` and give its measured inhibition. 87

Continue with `Cc1c(Cc2cccc(-c3ccc(F)cc3)c2)c(C(=O)O)nn1C` 57

Can you handle `Cc1n[nH]c(C(=O)O)c1-c1cccc(-c2ccc(F)cc2)c1` next? 79

Next up: `Cc1n[nH]c(C(=O)O)c1Cc1ccccc1Oc1ccccc1` 69

Again, but for `Cc1n[nH]c(C(=O)O)c1-c1ccc(-c2ccc(F)cc2)cc1` 65

---

Assign IC50 to each entry below.
target: 2-Hydroxyacid oxidase 2 (Rattus norvegicus, UniProt Q07523)
Answer as a quantity: numeral, then unit.

May I ask what IC50 has been recorded for `Cc1n[nH]c(C(=O)O)c1CCc1cccc(-c2ccc(F)cc2)c1` ? 900 nM

Also, `Cc1[nH]nc(C(=O)O)c1Cc1ccc(F)cc1` please. 700 nM

Now consider `Cc1[nH]nc(C(=O)O)c1Cc1ccc(-c2ccc(F)cc2)cc1` . 400 nM

Next up: `Cc1[nH]nc(C(=O)O)c1Cc1cccc(C(N)=O)c1` 900 nM

Now the molecule `Cc1n[nH]c(C(=O)O)c1Cc1cccc(-c2ccccc2F)c1` 900 nM

Another: `Cc1n[nH]c(C(=O)O)c1Cc1cccc(-c2ccc(OC(F)(F)F)cc2)c1` 300 nM

Check `Cc1[nH]nc(C(=O)O)c1Cc1ccc(C(N)=O)cc1` too. 1100 nM
